pIC50: −log10 of the molar value.
value-type: pIC50

Exercise: Observed pIC50 on UniProtKB P00533 for `Cc1cc(C(=O)NC(C)(C)C)cc(C#Cc2ccc3c4c(oc3c2)C(C)(C)c2cc(NS(C)(=O)=O)ccc2C4=O)n1` , please.
Sequence (P00533 whole entry): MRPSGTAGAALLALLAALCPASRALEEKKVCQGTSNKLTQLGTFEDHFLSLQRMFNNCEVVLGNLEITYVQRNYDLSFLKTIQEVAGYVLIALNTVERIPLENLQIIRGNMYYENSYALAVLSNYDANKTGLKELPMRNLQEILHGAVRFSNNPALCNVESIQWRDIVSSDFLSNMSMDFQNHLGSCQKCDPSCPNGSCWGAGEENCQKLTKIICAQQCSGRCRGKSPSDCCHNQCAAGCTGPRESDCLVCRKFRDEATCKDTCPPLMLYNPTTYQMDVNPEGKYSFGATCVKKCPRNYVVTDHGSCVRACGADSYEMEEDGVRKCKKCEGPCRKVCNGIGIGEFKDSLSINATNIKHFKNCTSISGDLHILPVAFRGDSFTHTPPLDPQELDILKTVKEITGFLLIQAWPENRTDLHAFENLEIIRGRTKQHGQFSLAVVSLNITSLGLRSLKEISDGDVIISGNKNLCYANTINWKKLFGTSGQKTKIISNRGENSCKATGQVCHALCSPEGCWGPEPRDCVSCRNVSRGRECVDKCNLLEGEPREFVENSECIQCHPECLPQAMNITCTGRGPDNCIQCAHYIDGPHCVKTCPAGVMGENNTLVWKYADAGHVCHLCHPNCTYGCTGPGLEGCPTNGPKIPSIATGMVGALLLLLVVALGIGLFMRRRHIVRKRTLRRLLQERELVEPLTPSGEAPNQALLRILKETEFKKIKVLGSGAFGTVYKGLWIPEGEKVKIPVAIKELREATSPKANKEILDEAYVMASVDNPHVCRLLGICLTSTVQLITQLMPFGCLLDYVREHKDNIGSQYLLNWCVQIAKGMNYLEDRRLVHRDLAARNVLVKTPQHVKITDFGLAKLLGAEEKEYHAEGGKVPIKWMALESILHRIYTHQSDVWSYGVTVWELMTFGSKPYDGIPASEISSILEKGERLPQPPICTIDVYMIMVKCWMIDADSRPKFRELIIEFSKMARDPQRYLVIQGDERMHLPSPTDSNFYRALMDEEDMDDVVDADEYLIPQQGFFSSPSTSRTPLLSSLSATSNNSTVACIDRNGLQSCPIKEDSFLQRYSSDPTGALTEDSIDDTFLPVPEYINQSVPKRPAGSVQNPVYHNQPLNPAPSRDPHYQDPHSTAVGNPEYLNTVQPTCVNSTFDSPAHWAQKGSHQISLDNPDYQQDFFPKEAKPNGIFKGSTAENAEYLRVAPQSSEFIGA
Solution: < 5.00

====

Target: Cyclin-dependent kinase 1 (Homo sapiens, UniProt P06493)
Sequence (P06493 whole entry): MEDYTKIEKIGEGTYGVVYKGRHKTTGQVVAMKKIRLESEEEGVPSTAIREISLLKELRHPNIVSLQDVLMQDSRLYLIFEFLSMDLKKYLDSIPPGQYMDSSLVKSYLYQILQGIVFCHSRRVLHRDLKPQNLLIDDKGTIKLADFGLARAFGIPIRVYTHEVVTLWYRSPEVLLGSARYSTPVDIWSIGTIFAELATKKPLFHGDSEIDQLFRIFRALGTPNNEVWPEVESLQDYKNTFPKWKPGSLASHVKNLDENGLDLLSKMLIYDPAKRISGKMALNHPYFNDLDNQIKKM
pIC50: −log10 of the molar value.
value-type: pIC50

Exercise: Query (compound): `Cc1cc(C(=O)NC(C)(C)C)cc(C#Cc2ccc3c4c(oc3c2)C(C)(C)c2cc(NS(C)(=O)=O)ccc2C4=O)n1` ; field requested: pIC50
Solution: < 5.00
